Assay Text: viability gain of MRP-1-high H69AR cells under doxorubicin, pilot screen, MRP-1 activator project, CellTiter-Glo, duplicate (AID 807);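 note: compound pretreatment 18-22 h then 72 h combined with doxorubicin; 0% = doxorubicin alone and 100% = vehicle without doxorubicin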
Measurement Setup: H69AR viability with doxorubicin, CellTiter-Glo luminescence; at 10 µM; active compounds read high
Quantity Name: viability increase (%)
One number for each entry, in %.

>  <Compound>
NCCCC(=O)N1c2ccccc2Sc2ccccc21

>  <Quantity Name>
viability increase

>  <Result Number>
-2.97

$$$$
>  <Compound>
CCOc1cc(/C=N/n2cnnc2)ccc1OCC(=O)Nc1ccccc1OC

>  <Quantity Name>
viability increase

>  <Result Number>
-1.37

$$$$

Provide reported viability increase for each item, in the same order as listed.
1. COC(=O)c1ccc(NCC(=O)c2ccccc2)cc1
2. COCCOC(=O)C1=C(C)NC2=C(C(=O)CC(C)(C)C2)C1c1ccc2c(c1)OCO2 (stereo not drawn)
3. O=C(CSc1nc2ccccc2[nH]1)Nc1ccc(F)cc1
4. O=C(NCCO)c1ccc2[nH]c3c(c2c1)CCCC3
5. CCCCCn1c(CCNC(=O)c2cccs2)nc2ccccc21
6. Cc1cc(Nc2ccc(F)cc2Cl)n2nc(C)nc2n1

[-4.87, -1.42, 0.83, -0.28, -2.25, -0.59]

====

Assay Text: reversal of MRP1-mediated doxorubicin resistance, pilot screen, H69AR cells, doxorubicin co-treatment (AID 601)
Measurement Setup: H69AR cells + 2 uM doxorubicin, CellTiter-Glo, 72 h; at 10 µM; active compounds read high
Quantity Name: differential viability (reversal) (%)
Answers are plain numbers, in %.

>  <Compound>
CCOc1ccc(N2C(N)=NC(N)=NC2(C)C)cc1

>  <Quantity Name>
differential viability (reversal)

>  <Result Number>
-26.6

$$$$
>  <Compound>
CCCC1CC(C)(C(=O)Cn2[nH]c(=O)ccc2=O)OC1=O (centres undefined)

>  <Quantity Name>
differential viability (reversal)

>  <Result Number>
-3.6

$$$$
>  <Compound>
CC(C)CCNC(=O)NC(=O)CSc1nnc(COc2ccccc2Cl)o1

>  <Quantity Name>
differential viability (reversal)

>  <Result Number>
5.9

$$$$
>  <Compound>
CC(C)Cn1c(=O)c(C2=NS(=O)(=O)c3ccccc3N2)c(O)c2ccccc21

>  <Quantity Name>
differential viability (reversal)

>  <Result Number>
-0.935

$$$$
>  <Compound>
CCOC(=O)CSc1nnc([C@H](CC(C)C)NC(=O)OC(C)(C)C)o1

>  <Quantity Name>
differential viability (reversal)

>  <Result Number>
-0.88

$$$$
>  <Compound>
CCCCCCC1/C(=N/O)CCC1C(=O)OC (centres undefined)

>  <Quantity Name>
differential viability (reversal)

>  <Result Number>
-1.02

$$$$
>  <Compound>
Nc1cc(-c2ccccc2)ccc1O

>  <Quantity Name>
differential viability (reversal)

>  <Result Number>
12

$$$$
>  <Compound>
CC(C)N(C=O)C1(C(=O)NC2CCCCC2)CCCCC1

>  <Quantity Name>
differential viability (reversal)

>  <Result Number>
13.7

$$$$

Provide reported differential viability (reversal) for each item, in the same order as listed.
1. CCC1(NC(C)=O)CC2CC1CC2NC(C)=O (centres undefined)
2. O=C(NCc1ccccn1)C(C(=O)c1ccc(F)cc1)n1ccccc1=O (centres undefined)

[11, -3.97]

Provide reported differential viability (reversal) for each item, in the same order as listed.
1. Cc1noc(C)c1S(=O)(=O)N1CCC(C(=O)N2CCN(Cc3ccc4c(c3)OCO4)CC2)CC1
2. CCCC(=O)O[C@]1(C(=O)CCl)[C@@H](C)C[C@H]2[C@@H]3CCC4=CC(=O)C=C[C@]4(C)[C@@]3(F)C(=O)C[C@@]21C
3. CCN(CC)Cc1csc(C(N)=O)c1
4. CCOC(=O)CSc1nc2sc(C)c(C)c2c(=O)n1C

[-6.75, 6.43, 5.04, 9.32]

Provide reported differential viability (reversal) for each item, in the same order as listed.
1. COc1ccc(-n2c(=O)[nH]cc(C(=O)Nc3ccc(NC(C)=O)cc3)c2=O)cc1
2. CN1CCN2c3ccccc3Cc3ccccc3C2C1 (centres undefined)
3. Cc1ccc(-c2noc(CCC(=O)NCCc3ccccc3Cl)n2)cc1
4. O=C(CCS(=O)(=O)c1cccc2nsnc12)N1CCN(Cc2ccc3c(c2)OCO3)CC1
5. O=C1CCC(=O)N1OCCCOc1ccc(Br)cc1Cl
6. FC(F)(F)c1cccc(N2CCN(Cc3cccnc3)CC2)c1
7. CCN(CCO)C1CC(=O)N(c2ccccc2C)C1=O (centres undefined)
8. O/N=C/c1ccc(OCC(O)COc2ccc(/C=N/O)cc2)cc1

1. 0.385
2. 1.02
3. 12
4. -9.25
5. -2.35
6. 25.3
7. 24.2
8. -1.19

Provide reported differential viability (reversal) for each item, in the same order as listed.
1. CCOC(=O)c1cccnc1SCC(=O)NC(C)CC (centres undefined)
2. O=c1sc(Nc2ccccc2)nc2ccsc12

1: 9.73; 2: -2.11
